target_desc: calcineurin (CN A–CN B heterodimer), recombinant (UniProt Q08209;P63098)
Sequence (P63098 16-170, one chain of several): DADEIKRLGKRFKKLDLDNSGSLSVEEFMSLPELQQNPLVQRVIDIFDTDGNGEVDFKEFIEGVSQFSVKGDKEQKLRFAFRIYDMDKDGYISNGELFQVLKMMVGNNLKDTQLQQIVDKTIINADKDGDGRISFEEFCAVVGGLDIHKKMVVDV
observed_property: Ki (µM)

1: GST-AKAP79(333–408) T343A (PIAIIIA) (domain or fragment) KRMEPIAIIIADTEISEFDVTKSKNVPKQFLISAENEQVGVFANDNGFEDRTSEQYETLLIETASSLVKNAIQLSI
2: KRMEAIAIIITDTEIS (domain or fragment) [GST-AKAP79(333–348) P337A (AIAIIIT)]
3: GST-AKAP79(333–408) I338P (PPAIIIT) (domain or fragment) KRMEPPAIIITDTEISEFDVTKSKNVPKQFLISAENEQVGVFANDNGFEDRTSEQYETLLIETASSLVKNAIQLSI
4: GST-tagged wildtype AKAP79(333–408) (PIAIIIT) (domain or fragment) KRMEPIAIIITDTEISEFDVTKSKNVPKQFLISAENEQVGVFANDNGFEDRTSEQYETLLIETASSLVKNAIQLSI
Ask: Reorder: Ki, max to min. Lab note: record answer as labels in requested order.
Reply: 1, 2, 4, 3

A: GST-AKAP79(333–408) I338P T343A (PPAIIIA) (domain or fragment) KRMEPPAIIIADTEISEFDVTKSKNVPKQFLISAENEQVGVFANDNGFEDRTSEQYETLLIETASSLVKNAIQLSI
B: KRMEPAAIIITDTEIS (domain or fragment) [GST-AKAP79(333–348) I338A (PAAIIIT)]
Ask: Please tell me which of the two, A or B , has the higher reported Ki value. Please indicate the selected item by its label.
Reply: B
